Source: patent US10670605B2

- system.under.test: cysteines in MDA-MB-231 and Ramos cells (Homo sapiens)
- Sequence (P09110 27-424): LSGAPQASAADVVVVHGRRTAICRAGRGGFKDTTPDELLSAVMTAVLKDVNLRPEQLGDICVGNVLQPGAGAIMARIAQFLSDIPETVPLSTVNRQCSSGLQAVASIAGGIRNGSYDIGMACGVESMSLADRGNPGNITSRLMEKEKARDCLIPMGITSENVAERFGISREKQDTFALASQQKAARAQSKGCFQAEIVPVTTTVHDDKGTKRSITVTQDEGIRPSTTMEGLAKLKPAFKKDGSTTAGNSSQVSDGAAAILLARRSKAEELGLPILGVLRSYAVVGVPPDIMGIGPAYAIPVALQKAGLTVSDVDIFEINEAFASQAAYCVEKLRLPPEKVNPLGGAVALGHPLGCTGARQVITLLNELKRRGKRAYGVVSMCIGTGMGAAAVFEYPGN
- experiment.summary: Competitive isoTOP-ABPP in situ (fragment-treated cells)
- Format: cell-based
- experimental.parameters: 200 μM, insitu, 231

- compound: "COc1ccccc1OCCNC(=O)CCl"
  system.under.test: "cysteines in MDA-MB-231 and Ramos cells (Homo sapiens)"
  isoTOP-ABPP ratio P09110_C381: 0.8
- compound: "C=CC(=O)N(Cc1cccnc1)c1cc(C(F)(F)F)cc(C(F)(F)F)c1"
  system.under.test: "cysteines in MDA-MB-231 and Ramos cells (Homo sapiens)"
  isoTOP-ABPP ratio P09110_C381: 0.7
- compound: "C=CC(=O)Nc1cc(F)c(N2CCN(C(=O)OC(C)(C)C)CC2)c(F)c1"
  system.under.test: "cysteines in MDA-MB-231 and Ramos cells (Homo sapiens)"
  isoTOP-ABPP ratio P09110_C381: 0.8
- compound: "Cc1ccc(C=C(C#N)C(=O)NCCN2CCOCC2)cc1"
  system.under.test: "cysteines in MDA-MB-231 and Ramos cells (Homo sapiens)"
  isoTOP-ABPP ratio P09110_C381: 0.9
- compound: "CC1CCc2ccccc2N1C(=O)CCl (centres unmarked)"
  system.under.test: "cysteines in MDA-MB-231 and Ramos cells (Homo sapiens)"
  isoTOP-ABPP ratio P09110_C381: 1.2

----------
isoTOP-ABPP ratio P42224_C492 reference
- system.under.test: cysteines in MDA-MB-231 and Ramos cells (Homo sapiens)
- Sequence (P42224 1-750): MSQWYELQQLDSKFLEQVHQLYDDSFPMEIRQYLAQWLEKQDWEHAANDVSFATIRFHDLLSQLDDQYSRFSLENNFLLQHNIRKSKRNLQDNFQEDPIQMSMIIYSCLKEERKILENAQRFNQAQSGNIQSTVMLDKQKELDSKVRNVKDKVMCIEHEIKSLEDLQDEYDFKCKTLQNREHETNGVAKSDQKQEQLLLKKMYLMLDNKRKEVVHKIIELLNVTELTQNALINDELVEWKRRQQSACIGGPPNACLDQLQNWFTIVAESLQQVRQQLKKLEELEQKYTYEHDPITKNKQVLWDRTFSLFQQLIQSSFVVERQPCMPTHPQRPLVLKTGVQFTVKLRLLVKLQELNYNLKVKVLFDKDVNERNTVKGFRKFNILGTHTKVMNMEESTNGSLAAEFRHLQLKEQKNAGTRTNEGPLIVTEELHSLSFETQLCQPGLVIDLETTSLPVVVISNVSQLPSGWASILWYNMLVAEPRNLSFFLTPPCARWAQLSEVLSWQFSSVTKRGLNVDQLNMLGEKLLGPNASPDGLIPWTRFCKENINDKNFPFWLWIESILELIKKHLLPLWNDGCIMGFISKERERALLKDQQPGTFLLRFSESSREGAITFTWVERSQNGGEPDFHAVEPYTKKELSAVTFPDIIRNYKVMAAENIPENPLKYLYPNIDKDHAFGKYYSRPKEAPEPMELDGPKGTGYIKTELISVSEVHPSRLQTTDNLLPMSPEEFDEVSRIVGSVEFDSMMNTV
- experiment.summary: Competitive isoTOP-ABPP in situ (fragment-treated cells)
- Assay type: cell-based
- experimental.parameters: 200 μM, insitu, 231

- compound: "Cc1ccc(C=C(C#N)C(=O)NCCN2CCOCC2)cc1 [compound 41]"
  isoTOP-ABPP ratio P42224_C492: 0.6
- compound: "C=CC(=O)N(Cc1cccnc1)c1cc(C(F)(F)F)cc(C(F)(F)F)c1 [compound 31]"
  isoTOP-ABPP ratio P42224_C492: 0.8
- compound: "O=C(CCl)N1CCN(S(=O)(=O)c2ccccc2F)CC1 [compound 10]"
  isoTOP-ABPP ratio P42224_C492: 20.0
- compound: "CC1CCc2ccccc2N1C(=O)CCl (stereo not drawn) [compound 45]"
  isoTOP-ABPP ratio P42224_C492: 20.0
- compound: "COc1ccccc1OCCNC(=O)CCl [compound 28]"
  isoTOP-ABPP ratio P42224_C492: 0.8
- compound: "O=C(CCl)NCCc1c[nH]c2ccccc12 [compound 13]"
  isoTOP-ABPP ratio P42224_C492: 1.0
- compound: "O=C(CCl)NC(=O)NC12CC3CC(CC(C3)C1)C2 [compound 12]"
  isoTOP-ABPP ratio P42224_C492: 1.0
- compound: "O=C(CCl)Nc1cccc2ncccc12 [compound 51]"
  isoTOP-ABPP ratio P42224_C492: 2.4
- compound: "O=C(CCl)NC12CC3CC(CC(C3)C1)C2 [compound 21]"
  isoTOP-ABPP ratio P42224_C492: 0.7

----------
- system.under.test: cysteines in MDA-MB-231 and Ramos cells (Homo sapiens)
- experiment.summary: Competitive isoTOP-ABPP in situ (fragment-treated cells)
- Assay type: cell-based
- experimental.parameters: 200 μM, insitu, 231
isoTOP-ABPP ratio Q9Y3D2_C105 reference

- compound: "C=CC(=O)Nc1cc(F)c(N2CCN(C(=O)OC(C)(C)C)CC2)c(F)c1"
  isoTOP-ABPP ratio Q9Y3D2_C105: 1.6
- compound: "CC(C)CCOCCNC(=O)CCl"
  isoTOP-ABPP ratio Q9Y3D2_C105: 1.5
- compound: "Cc1ccc(C=C(C#N)C(=O)NCCN2CCOCC2)cc1"
  isoTOP-ABPP ratio Q9Y3D2_C105: 1.2
- compound: "CC1CCc2ccccc2N1C(=O)CCl (stereo not shown)"
  isoTOP-ABPP ratio Q9Y3D2_C105: 20.0

----------
isoTOP-ABPP ratio Q96T76_C848 reference
- system.under.test: cysteines in MDA-MB-231 and Ramos cells (Homo sapiens)
- experiment.summary: Competitive isoTOP-ABPP in situ (fragment-treated cells)
- Type: cell-based
- experimental.parameters: 200 μM, insitu, 231

- compound: "C=CC(=O)N(Cc1cccnc1)c1cc(C(F)(F)F)cc(C(F)(F)F)c1 [compound 31]"
  isoTOP-ABPP ratio Q96T76_C848: 20.0
- compound: "Cc1ccc(C=C(C#N)C(=O)NCCN2CCOCC2)cc1 [compound 41]"
  isoTOP-ABPP ratio Q96T76_C848: 0.7
- compound: "O=C(CCl)NC12CC3CC(CC(C3)C1)C2 [compound 21]"
  isoTOP-ABPP ratio Q96T76_C848: 0.7

----------
- system.under.test: AIP C122 (O00170) (Homo sapiens, UniProt O00170)
- Sequence (O00170 whole entry): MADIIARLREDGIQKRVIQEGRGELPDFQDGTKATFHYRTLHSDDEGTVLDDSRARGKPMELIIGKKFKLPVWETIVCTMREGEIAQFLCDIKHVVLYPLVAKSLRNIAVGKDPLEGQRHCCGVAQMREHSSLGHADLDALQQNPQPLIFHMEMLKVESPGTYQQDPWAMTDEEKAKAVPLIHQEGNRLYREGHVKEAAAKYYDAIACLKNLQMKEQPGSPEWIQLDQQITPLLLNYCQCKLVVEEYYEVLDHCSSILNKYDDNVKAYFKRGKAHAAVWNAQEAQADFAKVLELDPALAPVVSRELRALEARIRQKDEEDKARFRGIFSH
- experiment.summary: Competitive isoTOP-ABPP, cell lysates
- Assay type: binding
- experimental.parameters: 500 μm in-vitro ramos_231
Mark T only for isoTOP-ABPP ratio (reactivity profile), O00170_C122 values smaller than 0.7; exact matches and larger values are F.

- chemical.structure: "O=C(CCl)N1CCOCC1"
  category: "F"
- chemical.structure: "COc1ccccc1OCCNC(=O)CCl"
  category: "F"
- chemical.structure: "O=C(CCl)NC12CC3CC(CC(C3)C1)C2"
  category: "F"
- chemical.structure: "CC(C)CCOCCNC(=O)CCl"
  category: "T"

----------
- system.under.test: cysteines in MDA-MB-231 and Ramos cells (Homo sapiens)
- experiment.summary: Competitive isoTOP-ABPP in situ (fragment-treated cells)
- Format: cell-based
- experimental.parameters: 200 μM, insitu, 231
isoTOP-ABPP ratio Q5T0N5_C69 reference
value.type: isoTOP-ABPP ratio Q5T0N5_C69

- molecule: "O=C(CCl)NCCc1c[nH]c2ccccc12 [compound 13]"
  system.under.test: "cysteines in MDA-MB-231 and Ramos cells (Homo sapiens)"
  readout.number: 1.0
- molecule: "Cc1ccc(C=C(C#N)C(=O)NCCN2CCOCC2)cc1 [compound 41]"
  system.under.test: "cysteines in MDA-MB-231 and Ramos cells (Homo sapiens)"
  readout.number: 0.6
- molecule: "O=C(CCl)NC12CC3CC(CC(C3)C1)C2 [compound 21]"
  system.under.test: "cysteines in MDA-MB-231 and Ramos cells (Homo sapiens)"
  readout.number: 0.8
- molecule: "C=CC(=O)Nc1cc(F)c(N2CCN(C(=O)OC(C)(C)C)CC2)c(F)c1 [compound 38]"
  system.under.test: "cysteines in MDA-MB-231 and Ramos cells (Homo sapiens)"
  readout.number: 1.5
- molecule: "O=C(CCl)N1CCN(S(=O)(=O)c2ccccc2F)CC1 [compound 10]"
  system.under.test: "cysteines in MDA-MB-231 and Ramos cells (Homo sapiens)"
  readout.number: 2.0
- molecule: "CC1CCc2ccccc2N1C(=O)CCl (stereo not drawn) [compound 45]"
  system.under.test: "cysteines in MDA-MB-231 and Ramos cells (Homo sapiens)"
  readout.number: 5.4
- molecule: "CC(C)CCOCCNC(=O)CCl [compound 27]"
  system.under.test: "cysteines in MDA-MB-231 and Ramos cells (Homo sapiens)"
  readout.number: 0.6
- molecule: "O=C(CCl)NC(=O)NC12CC3CC(CC(C3)C1)C2 [compound 12]"
  system.under.test: "cysteines in MDA-MB-231 and Ramos cells (Homo sapiens)"
  readout.number: 20.0
- molecule: "O=C(CCl)Nc1cccc2ncccc12 [compound 51]"
  system.under.test: "cysteines in MDA-MB-231 and Ramos cells (Homo sapiens)"
  readout.number: 1.7
